B1: Zinc finger homeobox protein 3, residues 2147 to 2202; numbered along this chain, Q15911 (parent)
chain: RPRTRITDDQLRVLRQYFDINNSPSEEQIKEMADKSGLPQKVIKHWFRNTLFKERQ

- Variants of: B1
- assayExplanation: abundance fitness (aPCA) (normalised: wild type 0, dead -1); higher = more abundant; growth selection in yeast, the domain comes from the species named
- testSettings: Homo sapiens
Would you mind labelling by abundance fitness? At or over -0.1 is True, under is False.

Worked examples follow.
RPRTRITDDQLRVLRQYFGINNSPSEEQIKEMADKSGLPQKVIKHWFRNTLFKERQ [D19G] = False
RPRTRITDDQLRVLRQYFDINNSPSEEQIMEMADKSGLPQKVIKHWFRNTLFKERQ [K30M] = False

Q: # check: abundance fitness of RPRTFITDDQLRVLRQYFDINNSPSEEQIKEMADKSGLPQKVIKHWFRNTLFKERQ [R5F] is greater than or equal to -0.1
Result: True

Q: Given RPRTRITDDQLRVLRQYFDINNSPSEEQYKEMADKSGLPQKVIKHWFRNTLFKERQ [I29Y] , state whether its abundance fitness is at least -0.1.
Result: False

Q: Threshold query (abundance fitness >= -0.1) on RPRTRITDDQLRVLRQYFDINNSASEEQIKEMADKSGLPQKVIKHWFRNTLFKERQ [P24A]
Result: False

Q: Tell me whether abundance fitness is at least -0.1 here: RPRTRITDDQLRVLRQYFDINNSPSEEQIKEMADKSGLPQKVIKSWFRNTLFKERQ [H45S]
Result: True

Q: Identify whether the reported abundance fitness of the following variant is -0.1 or greater: RPRTRITDDQLRVLRQYFDINNSPSEEQIKEMADKSGLPQKVIKHWFHNTLFKERQ [R48H]
Result: True
